- ASSAY_SYSTEM: AKT3 (Homo sapiens, UniProt Q9Y243)
- Sequence (Q9Y243 whole entry): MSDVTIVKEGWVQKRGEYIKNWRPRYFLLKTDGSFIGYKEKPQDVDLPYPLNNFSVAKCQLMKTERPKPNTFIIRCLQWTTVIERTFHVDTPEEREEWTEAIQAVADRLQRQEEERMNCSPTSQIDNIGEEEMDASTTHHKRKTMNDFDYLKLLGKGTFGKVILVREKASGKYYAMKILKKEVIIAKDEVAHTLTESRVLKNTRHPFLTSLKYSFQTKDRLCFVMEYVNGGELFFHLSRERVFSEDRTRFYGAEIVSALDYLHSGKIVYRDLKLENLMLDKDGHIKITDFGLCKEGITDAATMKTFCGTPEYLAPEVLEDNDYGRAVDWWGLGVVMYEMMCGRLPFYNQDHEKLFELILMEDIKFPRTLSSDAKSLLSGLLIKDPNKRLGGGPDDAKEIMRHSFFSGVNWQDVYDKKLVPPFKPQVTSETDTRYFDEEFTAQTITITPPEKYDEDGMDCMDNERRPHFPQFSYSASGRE
- ASSAY_NAME: KINOMEscan competition binding
- SETUP_CONDITIONS: read-out: %Inh AKT3
PROPERTY_NAME: inhibition at 1 µM

O=c1cc(N2CCOCC2)nc2n(Cc3cccc(Cl)c3Cl)c(C3CC3)nn12 [UNC10225469A]; 0%

Query string: Which measured inhibition at 1 µM value corresponds to CS(=O)(=O)Cc1ccc(Nc2nccc(-c3c(-c4cccc(NC(=O)C5CCCCC5)c4)nn4ncccc34)n2)cc1 [UNC10225159A] ?
Result string: 0%

====

- ASSAY_SYSTEM: ASK1 (Homo sapiens)
- Sequence (Q99683 whole entry): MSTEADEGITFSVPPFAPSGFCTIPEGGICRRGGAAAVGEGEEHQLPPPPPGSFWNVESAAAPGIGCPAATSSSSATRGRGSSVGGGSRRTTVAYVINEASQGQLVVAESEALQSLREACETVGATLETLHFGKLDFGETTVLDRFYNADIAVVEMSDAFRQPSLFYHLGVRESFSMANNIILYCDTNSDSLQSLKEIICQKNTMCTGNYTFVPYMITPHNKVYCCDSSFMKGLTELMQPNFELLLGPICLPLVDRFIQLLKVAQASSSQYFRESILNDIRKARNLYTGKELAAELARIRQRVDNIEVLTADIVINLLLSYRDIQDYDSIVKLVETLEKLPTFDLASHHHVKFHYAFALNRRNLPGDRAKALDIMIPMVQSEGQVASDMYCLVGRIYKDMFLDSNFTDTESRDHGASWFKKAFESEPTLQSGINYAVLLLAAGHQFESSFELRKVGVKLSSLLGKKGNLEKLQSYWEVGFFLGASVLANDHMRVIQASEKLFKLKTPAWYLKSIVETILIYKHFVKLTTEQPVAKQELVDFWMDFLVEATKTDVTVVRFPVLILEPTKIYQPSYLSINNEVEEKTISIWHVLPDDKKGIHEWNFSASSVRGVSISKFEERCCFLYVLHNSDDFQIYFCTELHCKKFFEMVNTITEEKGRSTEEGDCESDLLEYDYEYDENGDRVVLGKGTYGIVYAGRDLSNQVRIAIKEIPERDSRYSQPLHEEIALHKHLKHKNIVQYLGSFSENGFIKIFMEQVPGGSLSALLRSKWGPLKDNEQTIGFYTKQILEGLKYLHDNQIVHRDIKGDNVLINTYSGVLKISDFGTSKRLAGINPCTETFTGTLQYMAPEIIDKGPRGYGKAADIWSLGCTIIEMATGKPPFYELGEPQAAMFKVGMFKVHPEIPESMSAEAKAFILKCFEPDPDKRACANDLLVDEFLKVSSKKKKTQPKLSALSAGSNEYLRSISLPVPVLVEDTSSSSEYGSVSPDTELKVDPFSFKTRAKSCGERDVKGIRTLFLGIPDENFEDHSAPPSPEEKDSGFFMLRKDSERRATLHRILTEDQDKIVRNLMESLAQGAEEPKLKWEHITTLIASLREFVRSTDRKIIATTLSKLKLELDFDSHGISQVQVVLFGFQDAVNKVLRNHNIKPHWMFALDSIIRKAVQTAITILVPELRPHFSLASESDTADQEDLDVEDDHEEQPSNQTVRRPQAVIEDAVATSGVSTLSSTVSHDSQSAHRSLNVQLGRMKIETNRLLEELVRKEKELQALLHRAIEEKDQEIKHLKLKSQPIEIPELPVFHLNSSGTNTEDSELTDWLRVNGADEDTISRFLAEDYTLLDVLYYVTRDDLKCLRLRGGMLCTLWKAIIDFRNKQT
- ASSAY_NAME: KINOMEscan competition binding
- SETUP_CONDITIONS: read-out: %Inh ASK1
PROPERTY_NAME: inhibition at 1 µM (%)
Supply the numeric figure in %, leaving out any unit text.

Worked cases, inhibition at 1 µM given:
CS(=O)(=O)Cc1ccc(Nc2nccc(-c3c(-c4cccc(NC(=O)C5CCCCC5)c4)nn4ncccc34)n2)cc1 [UNC10225159A]; 0
Cn1cc(-c2cnc(N)c3c(-c4ccc5c(c4)CCN5C(=O)Cc4ccccc4)csc23)cn1 [UNC10225012A]; 21
O=c1cc(N2CCOCC2)nc2n(Cc3cccc(Cl)c3Cl)c(C3CC3)nn12 [UNC10225469A]; 0
Cc1ccc(NC(=O)Nc2cccc(C(F)(F)F)c2)cc1 [UNC10225187A]; 20

Pending compound:
Query string: Which measured inhibition at 1 µM value corresponds to COc1cccc(OC)c1C(=O)Nc1cccc(-c2nn3ccccc3c2-c2ccnc(Nc3cccc(F)c3)n2)c1 [UNC10225310A] ?
Result string: 22
